The measured values listed here are drawn from paper doi:10.1101/2022.09.09.507210v3.

Examples of molecules with documented pIC50 follow.
# Test system: Toxoplasma gondii RH (tdTomato)
# Construct: RH
# Test protocol: microbe, parasite or virus in culture
# Set-up: species or system HFF (host); tdTomato parasite growth in HFF cells, daily fluorescence, IC50 at day 5-6
# Conditions: HFF, read-out: Parasite Growth IC50
Value format note: pIC50 is -log10 of concentration (mol/L); just state the number.

// known answers, use as guide
Chemical string	Tested system	Result number
COc1ccc([C@H](C)NCc2c[nH]nc2-c2cccs2)cc1	Toxoplasma gondii RH (tdTomato)	4.40
Cc1ccc(C2(NCc3c[nH]nc3-c3cccs3)CC2)cc1	Toxoplasma gondii RH (tdTomato)	4.60
c1ccc(C2(NCc3c[nH]nc3-c3cccs3)CC2)cc1	Toxoplasma gondii RH (tdTomato)	5.00
COc1ccc(C2(NCc3c[nH]nc3-c3ccccc3)CC2)cc1	Toxoplasma gondii RH (tdTomato)	4.60
COc1ccc(C2(NCc3c[nH]nc3-c3cccs3)CC2)cc1	Toxoplasma gondii RH (tdTomato)	4.71

Field pIC50 (Toxoplasma gondii RH (tdTomato)), entry COc1ccc(C2(NCc3cc[nH]c3)CC2)cc1 : 4.66

Field pIC50 (Toxoplasma gondii RH (tdTomato)), entry Clc1ccc(C2(NCc3c[nH]nc3-c3cccs3)CC2)cc1Cl : 4.51

Field pIC50 (Toxoplasma gondii RH (tdTomato)), entry Clc1ccc(C2(NCc3c[nH]nc3-c3cccs3)CC2)cc1 : 4.81

Field pIC50 (Toxoplasma gondii RH (tdTomato)), entry COc1ccc([C@@H](C)NCc2c[nH]nc2-c2cccs2)cc1 : 4.35

Field pIC50 (Toxoplasma gondii RH (tdTomato)), entry CC(C)(NCc1c[nH]nc1-c1cccs1)c1ccccc1 : 4.57
